# targetSystem: H^+,K^+-ATPase A335G (Sus scrofa, UniProt P19156, A336G)
# Sequence (P19156 whole entry A336G, one chain of several): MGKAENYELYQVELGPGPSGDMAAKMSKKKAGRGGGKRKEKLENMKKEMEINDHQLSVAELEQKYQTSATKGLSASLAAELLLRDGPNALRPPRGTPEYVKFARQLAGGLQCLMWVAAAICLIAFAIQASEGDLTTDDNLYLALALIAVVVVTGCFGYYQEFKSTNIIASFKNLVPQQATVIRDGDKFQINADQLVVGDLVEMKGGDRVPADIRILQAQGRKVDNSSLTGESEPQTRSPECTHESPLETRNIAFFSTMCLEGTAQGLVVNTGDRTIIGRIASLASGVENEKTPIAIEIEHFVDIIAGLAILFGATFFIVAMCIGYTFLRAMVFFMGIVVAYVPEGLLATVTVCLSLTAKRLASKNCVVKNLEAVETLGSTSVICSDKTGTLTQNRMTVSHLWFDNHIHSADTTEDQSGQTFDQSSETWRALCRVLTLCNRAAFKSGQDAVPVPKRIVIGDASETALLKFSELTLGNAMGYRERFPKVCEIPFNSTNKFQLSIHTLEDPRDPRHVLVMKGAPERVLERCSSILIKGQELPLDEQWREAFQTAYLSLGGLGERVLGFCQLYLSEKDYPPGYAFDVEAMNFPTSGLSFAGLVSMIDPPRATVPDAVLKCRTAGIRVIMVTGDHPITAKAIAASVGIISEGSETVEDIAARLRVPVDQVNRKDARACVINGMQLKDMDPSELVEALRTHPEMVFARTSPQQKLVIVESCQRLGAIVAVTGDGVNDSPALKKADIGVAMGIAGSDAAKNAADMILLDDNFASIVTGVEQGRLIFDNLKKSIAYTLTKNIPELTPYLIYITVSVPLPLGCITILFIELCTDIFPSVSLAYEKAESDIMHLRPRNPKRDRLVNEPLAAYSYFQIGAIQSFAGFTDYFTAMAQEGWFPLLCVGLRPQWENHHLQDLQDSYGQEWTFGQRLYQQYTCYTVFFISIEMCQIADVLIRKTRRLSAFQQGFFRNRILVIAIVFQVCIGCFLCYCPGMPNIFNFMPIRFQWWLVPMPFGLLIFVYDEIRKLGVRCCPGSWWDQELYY
# measurementNotes: ATPase assay, A335G mutant
metricName: Ki (nM)

(P) Cc1nc2c3c(ccn2c1C)[C@@H](O)[C@H](O)[C@@H](c1ccccc1)N3C [BYK73]
(Q) N#CCc1cnc2c(OCc3ccccc3)cccn12 [SCH-Me^−]
(R) Cc1nc2c3c(ccn2c1C)[C@@H](O)[C@H](O)[C@@H](c1ccccc1)N3 [BYK99]
(S) Cc1cn2cccc(OCc3ccccc3)c2n1 [SCH-CN^−]
## Task Hi! Can you put these in order of Ki, lowest number first? Answer by listing the labels in the requested order.
## Result R, P, S, Q

* * *

# targetSystem: H^+,K^+-ATPase V331A (Sus scrofa, UniProt P19156, V332A)
# Sequence (P19156 whole entry V332A): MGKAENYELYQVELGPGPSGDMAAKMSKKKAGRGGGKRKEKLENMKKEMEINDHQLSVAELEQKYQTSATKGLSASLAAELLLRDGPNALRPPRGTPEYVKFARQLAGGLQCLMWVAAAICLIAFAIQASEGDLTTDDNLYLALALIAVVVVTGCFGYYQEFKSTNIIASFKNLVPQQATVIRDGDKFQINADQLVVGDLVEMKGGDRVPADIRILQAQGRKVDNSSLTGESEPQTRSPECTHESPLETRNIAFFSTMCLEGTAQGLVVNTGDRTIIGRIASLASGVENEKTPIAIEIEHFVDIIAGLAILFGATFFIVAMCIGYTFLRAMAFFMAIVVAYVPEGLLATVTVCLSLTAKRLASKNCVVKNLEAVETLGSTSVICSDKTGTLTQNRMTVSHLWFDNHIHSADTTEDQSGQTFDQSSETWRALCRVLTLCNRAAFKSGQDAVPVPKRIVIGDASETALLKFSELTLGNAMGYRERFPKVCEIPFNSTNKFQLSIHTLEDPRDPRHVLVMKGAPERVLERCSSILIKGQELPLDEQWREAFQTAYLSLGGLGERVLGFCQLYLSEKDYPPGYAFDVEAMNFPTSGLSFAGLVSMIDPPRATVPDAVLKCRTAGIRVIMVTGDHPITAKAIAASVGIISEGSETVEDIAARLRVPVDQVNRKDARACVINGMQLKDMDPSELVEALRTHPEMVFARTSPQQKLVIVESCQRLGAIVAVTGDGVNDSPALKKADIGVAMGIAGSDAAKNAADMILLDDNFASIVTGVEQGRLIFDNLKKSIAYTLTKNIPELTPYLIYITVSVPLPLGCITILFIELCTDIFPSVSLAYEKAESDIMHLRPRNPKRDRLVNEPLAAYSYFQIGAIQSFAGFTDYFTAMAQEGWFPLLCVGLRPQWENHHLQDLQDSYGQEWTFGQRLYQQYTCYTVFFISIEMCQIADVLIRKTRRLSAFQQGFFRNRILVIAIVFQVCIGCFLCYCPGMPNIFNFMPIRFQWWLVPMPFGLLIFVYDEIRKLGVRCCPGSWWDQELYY
# Sequence (P18434 whole entry partner): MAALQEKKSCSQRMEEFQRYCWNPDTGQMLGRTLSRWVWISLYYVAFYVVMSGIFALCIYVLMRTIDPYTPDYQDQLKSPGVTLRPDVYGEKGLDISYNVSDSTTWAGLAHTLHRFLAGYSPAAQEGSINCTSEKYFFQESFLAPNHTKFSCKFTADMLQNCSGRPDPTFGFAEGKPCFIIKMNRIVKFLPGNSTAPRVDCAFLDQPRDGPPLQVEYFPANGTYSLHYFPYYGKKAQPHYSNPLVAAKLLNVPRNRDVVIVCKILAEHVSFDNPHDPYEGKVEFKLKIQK
# measurementNotes: ATPase assay, V331A mutant
metricName: Ki (nM)
Enter your answer as a number in nM; do not include the unit.

## Task Requested read-out: Ki. Entry: "Cc1nc2c3c(ccn2c1C)[C@@H](O)[C@H](O)[C@@H](c1ccccc1)N3"
## Result 47

* * *

# targetSystem: H^+,K^+-ATPase N138I (Sus scrofa, UniProt P19156, N139I)
# Sequence (P19156 whole entry N139I, one chain of several): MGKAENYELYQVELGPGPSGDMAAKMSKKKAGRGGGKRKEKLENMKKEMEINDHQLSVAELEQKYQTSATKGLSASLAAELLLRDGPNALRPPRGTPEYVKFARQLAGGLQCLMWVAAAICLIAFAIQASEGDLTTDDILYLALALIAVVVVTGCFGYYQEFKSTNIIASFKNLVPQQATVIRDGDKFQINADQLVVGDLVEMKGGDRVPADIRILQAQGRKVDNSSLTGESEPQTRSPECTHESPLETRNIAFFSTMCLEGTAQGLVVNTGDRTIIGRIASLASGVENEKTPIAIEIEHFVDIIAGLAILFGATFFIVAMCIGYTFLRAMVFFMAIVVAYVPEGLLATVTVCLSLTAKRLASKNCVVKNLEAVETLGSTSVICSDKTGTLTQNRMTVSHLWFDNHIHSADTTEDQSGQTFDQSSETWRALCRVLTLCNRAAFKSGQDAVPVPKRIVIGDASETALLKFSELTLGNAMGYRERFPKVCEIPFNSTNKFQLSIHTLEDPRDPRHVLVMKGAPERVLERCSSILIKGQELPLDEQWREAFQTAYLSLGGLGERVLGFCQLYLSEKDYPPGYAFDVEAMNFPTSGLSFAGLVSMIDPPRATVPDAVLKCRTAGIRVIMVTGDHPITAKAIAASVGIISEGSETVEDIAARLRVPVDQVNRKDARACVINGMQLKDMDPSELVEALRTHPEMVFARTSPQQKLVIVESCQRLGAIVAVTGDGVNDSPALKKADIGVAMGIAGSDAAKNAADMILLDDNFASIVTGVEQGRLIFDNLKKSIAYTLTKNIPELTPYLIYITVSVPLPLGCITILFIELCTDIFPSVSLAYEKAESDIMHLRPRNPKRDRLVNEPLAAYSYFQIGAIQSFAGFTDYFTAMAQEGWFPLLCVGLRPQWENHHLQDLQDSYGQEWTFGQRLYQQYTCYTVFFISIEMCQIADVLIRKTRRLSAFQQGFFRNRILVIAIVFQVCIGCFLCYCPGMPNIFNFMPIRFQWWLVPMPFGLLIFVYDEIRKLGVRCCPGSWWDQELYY
# measurementNotes: ATPase assay, N138I mutant
pKi: −log10 of the molar value.
metricName: pKi

(I) Cc1cn2cccc(OCc3ccccc3)c2n1
(II) Cc1nc2c3c(ccn2c1C)[C@@H](O)[C@H](O)[C@@H](c1ccccc1)N3
(III) Cc1nc2c3c(ccn2c1C)[C@@H](O)[C@H](O)[C@@H](c1ccccc1)N3C
(IV) N#CCc1cnc2c(OCc3ccccc3)cccn12
## Task Order the 4 listed items from lowest to highest according to pKi. State the ranking by listing the labels in the requested order.
## Result III, I, IV, II
(III: 4.21, I: 5.43, IV: 6.02, II: 7.47)

* * *

# targetSystem: H^+,K^+-ATPase Y140I (Sus scrofa, UniProt P19156, Y141I)
# Sequence (P19156 whole entry Y141I, one chain of several): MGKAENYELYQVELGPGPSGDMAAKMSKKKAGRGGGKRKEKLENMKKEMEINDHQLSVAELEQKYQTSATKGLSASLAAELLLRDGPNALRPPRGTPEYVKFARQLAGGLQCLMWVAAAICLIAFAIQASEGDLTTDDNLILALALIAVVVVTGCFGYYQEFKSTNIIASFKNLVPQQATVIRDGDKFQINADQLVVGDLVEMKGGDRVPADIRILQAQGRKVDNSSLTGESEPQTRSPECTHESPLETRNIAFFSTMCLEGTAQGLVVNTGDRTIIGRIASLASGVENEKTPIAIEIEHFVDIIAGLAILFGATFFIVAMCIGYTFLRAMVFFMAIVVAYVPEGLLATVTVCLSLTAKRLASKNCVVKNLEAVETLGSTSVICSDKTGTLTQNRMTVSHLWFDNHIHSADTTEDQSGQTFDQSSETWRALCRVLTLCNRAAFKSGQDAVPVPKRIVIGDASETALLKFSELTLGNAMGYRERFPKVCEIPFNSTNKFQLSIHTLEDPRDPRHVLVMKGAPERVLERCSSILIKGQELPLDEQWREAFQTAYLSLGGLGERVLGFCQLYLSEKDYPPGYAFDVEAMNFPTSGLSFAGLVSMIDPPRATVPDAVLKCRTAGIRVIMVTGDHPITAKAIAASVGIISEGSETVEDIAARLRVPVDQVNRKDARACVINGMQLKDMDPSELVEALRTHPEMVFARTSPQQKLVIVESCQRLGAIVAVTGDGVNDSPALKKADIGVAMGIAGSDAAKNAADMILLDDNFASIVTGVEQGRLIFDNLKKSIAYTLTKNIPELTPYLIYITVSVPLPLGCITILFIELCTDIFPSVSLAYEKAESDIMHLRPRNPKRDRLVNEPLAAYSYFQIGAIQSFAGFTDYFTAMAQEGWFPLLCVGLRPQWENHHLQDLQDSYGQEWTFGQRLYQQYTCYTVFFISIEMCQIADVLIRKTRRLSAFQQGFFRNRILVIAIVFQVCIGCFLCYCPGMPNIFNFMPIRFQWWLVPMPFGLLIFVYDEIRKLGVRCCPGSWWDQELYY
# measurementNotes: ATPase assay, Y140I mutant
# statedConditions: Y140I
metricName: -fold increase in K i compared with wild-type (fold)

smilesNotation	measuredValue
N#CCc1cnc2c(OCc3ccccc3)cccn12	0.5
Cc1nc2c3c(ccn2c1C)[C@@H](O)[C@H](O)[C@@H](c1ccccc1)N3C	0.8
Cc1cn2cccc(OCc3ccccc3)c2n1	0.7
Cc1nc2c3c(ccn2c1C)[C@@H](O)[C@H](O)[C@@H](c1ccccc1)N3	0.7

* * *

# targetSystem: H^+,K^+-ATPase L796F (Sus scrofa, UniProt P19156, L797F)
# measurementNotes: ATPase assay, L796F mutant
metricName: Ki (nM)
State the answer as a number, implicitly in nM.

## Task Bench note: what Ki did "Cc1nc2c3c(ccn2c1C)[C@@H](O)[C@H](O)[C@@H](c1ccccc1)N3" show?
## Result 106

* * *

# targetSystem: H^+,K^+-ATPase Y799F (Sus scrofa, UniProt P19156, Y800F)
# measurementNotes: ATPase assay, Y799F mutant
# statedConditions: Y799F
metricName: -fold increase in K i compared with wild-type (fold)

smilesNotation	unitSymbol	measuredValue
N#CCc1cnc2c(OCc3ccccc3)cccn12	fold	2.8
Cc1nc2c3c(ccn2c1C)[C@@H](O)[C@H](O)[C@@H](c1ccccc1)N3C	fold	4.3

(I) Cc1nc2c3c(ccn2c1C)[C@@H](O)[C@H](O)[C@@H](c1ccccc1)N3
(II) Cc1cn2cccc(OCc3ccccc3)c2n1
## Task Of I and II , which one carries the higher reported -fold increase in K i compared with wild-type? Use the label to indicate which entry you chose.
## Result I
